# System: DeltatarO mutant
# protocol description: S. aureus survival, RN4220 and DeltatarO strains – OD600, teichoic acid synthesis inhibitors, primary screen (AID 463173)
# run conditions: S. aureus RN4220 wild type/DeltatarO growth, OD600, 18 h, active compounds read low, screened at 18.75 µg/mL (by protocol)
The campaign covered roughly 52,000 compounds. About 4,300 (8.3%) were called active. The sample holds actives, similar compounds and a random draw of the others, so the mix is not that of the screen.
Field 'label' (enum: criterion met / criterion not met). Set to criterion met when survival is strictly under 70%; else criterion not met.

Confirm or reject: survival of `COc1ccc(N2CCN(C(=O)c3nc(-c4ccc(Cl)cc4)n4c3CCCCC4)CC2)cc1` lies strictly below 70%
criterion not met

Confirm or reject: survival of `Cc1ccc(NC(=O)Cn2cc(C(=O)C3CC3)c3ccccc32)cc1` lies strictly below 70%
criterion not met

Confirm or reject: survival of `Cc1cccc(CSc2ncc(Cl)c(C(=O)Nc3nnc(C)s3)n2)c1` lies strictly below 70%
criterion not met

Confirm or reject: survival of `COc1ccc(-n2c(=O)c3ccccc3n(CC(=O)NCCc3ccccc3)c2=O)c(OC)c1` lies strictly below 70%
criterion not met

Confirm or reject: survival of `CCc1nnc(NC(=O)c2nc(SCc3ccccc3F)ncc2Cl)s1` lies strictly below 70%
criterion met

Confirm or reject: survival of `O=C(Nc1cccc(Cl)c1)c1ccc2c(c1)CCN2S(=O)(=O)c1ccccc1` lies strictly below 70%
criterion met

Confirm or reject: survival of `Cc1ccc(CNC(=O)c2nc(SCc3ccc(C)cc3)ncc2Cl)cc1` lies strictly below 70%
criterion not met

Confirm or reject: survival of `CCN(CC)C(=O)Cn1cc(SCC(=O)Nc2ccccc2F)c2ccccc21` lies strictly below 70%
criterion not met

Confirm or reject: survival of CCSc1nc2n(n1)C(c1ccc(Cl)cc1Cl)C(C(=O)Nc1ccccc1C)=C(C)N2 (stereo unspecified) lies strictly below 70%
criterion met

Confirm or reject: survival of CC(CCc1ccccc1)NC(=O)Cn1c(=O)nc(-c2ccccc2)c2cc(Cl)ccc21 (stereo unspecified) lies strictly below 70%
criterion not met

Confirm or reject: survival of `CCCc1nnc(NC(=O)c2nc(SCC)ncc2Cl)s1` lies strictly below 70%
criterion not met

Confirm or reject: survival of `CC(=O)Nc1ccc(NC(=O)c2ccc3c(c2)CCN3S(=O)(=O)c2ccc(Cl)cc2)cc1` lies strictly below 70%
criterion not met

Confirm or reject: survival of CCOC(=O)c1ccc(NC(=O)CC2C(=O)N(c3ccc(F)cc3)C(=O)N2Cc2ccc3c(c2)OCO3)cc1 (stereo unspecified) lies strictly below 70%
criterion not met

Confirm or reject: survival of `Cc1noc(Cn2c(=O)c3cc4c(cc3n(CC(=O)Nc3ccccc3F)c2=O)OCO4)n1` lies strictly below 70%
criterion not met

Confirm or reject: survival of `Cc1ccccc1/C=C(\C#N)c1nc(-c2ccc(Cl)cc2)cs1` lies strictly below 70%
criterion met

Confirm or reject: survival of `Cc1ccc(CSc2ncc(Cl)c(C(=O)Nc3nnc(C)s3)n2)cc1` lies strictly below 70%
criterion met

Confirm or reject: survival of `Cc1nnc(NC(=O)c2nc(SCc3ccccc3F)ncc2Cl)s1` lies strictly below 70%
criterion not met

Confirm or reject: survival of `CCc1nnc(NC(=O)c2nc(SCc3cccc(C)c3)ncc2Cl)s1` lies strictly below 70%
criterion met

Confirm or reject: survival of `O=C(c1ccc2c(c1)CCN2S(=O)(=O)c1ccccc1)N1CCN(c2cccc(Cl)c2)CC1` lies strictly below 70%
criterion met

----------
# Test system: DeltatarO mutant
# protocol description: S. aureus survival, RN4220 and DeltatarO strains – OD600, teichoic acid synthesis inhibitors, primary screen (AID 463173)
# run conditions: S. aureus RN4220 wild type/DeltatarO growth, OD600, 18 h, screened at 18.75 µg/mL (by protocol)
Among all 52,000 compounds or so, about 4,300 (8.3%) were called active. No stated cut-off is given here; in the data, active means survival mostly below about 52% (no sharp cut-off); inactive means mostly above about 56%. For the sample, actives were picked, then their nearest neighbours and some compounds at random.
Form entry, call: pick from TRUE = active, FALSE = inactive

Outcome logged for `Cc1nn(C)c(C)c1CCNC(=O)Nc1ccccc1C(F)(F)F` in this assay:
TRUE

Outcome logged for `Cc1cc(C)c(NC(=O)Cn2c(=O)n(-c3cccc(C(F)(F)F)c3)c(=O)c3c(C)c(C)sc32)c(C)c1` in this assay:
FALSE

Outcome logged for CCCC(C(=O)NC1CCCC1)N(Cc1ccccc1)C(=O)Cn1nnc(-c2ccc(C)o2)n1 (stereo not given) in this assay:
FALSE

Outcome logged for `CC(=O)Nc1ccc(NC(=O)CCc2c(C)nc3c(c(C)nn3-c3ccccc3)c2C)cc1` in this assay:
FALSE

Outcome logged for CCOC(=O)C1(C)C=C(Nc2cccc(C)c2)C(=O)N1c1ccccc1 (stereo not given) in this assay:
TRUE

Outcome logged for CCOC(=O)CN(Cc1ccccc1)C(C(=O)NC1CCCCC1)c1ccccc1 (stereo not given) in this assay:
TRUE

Outcome logged for `COC(=O)c1ccc(Cl)cc1NC(=O)NCCc1c(C)nn(C)c1C` in this assay:
FALSE

Outcome logged for CCC(Sc1nccn1C)C(=O)Nc1cc(C)on1 (stereo not given) in this assay:
FALSE

Outcome logged for COc1ccc(C(C(=O)NC2CCCC2)N(Cc2ccc(C)cc2)C(=O)c2ccn[nH]2)cc1OC (stereo not given) in this assay:
FALSE

Outcome logged for `COc1cccc(CNC(=O)Cn2c(C)c3cnn(-c4ccccc4)c(=O)c3c2C)c1` in this assay:
FALSE

----------
Assignment: determine reported survival for the given compounds.
# Test system: DeltatarO mutant
# protocol description: S. aureus survival, RN4220 and DeltatarO strains – OD600, teichoic acid synthesis inhibitors, primary screen (AID 463173)
# run conditions: S. aureus RN4220 wild type/DeltatarO growth, OD600, 18 h, active compounds read low, screened at 18.75 µg/mL (by protocol)
Hit rate of the full screen: of about 52,000 compounds, about 4,300 (8.3%) were called active. Many of the other results were omitted from the sample, so actives are more common in it than they were.
The reply should contain only the number, in %.

Record `CCc1nn(Cc2cc(C)ccc2C)c(=O)c2cc3cc(C)ccc3n12` . Reported survival: 95

Record `COC(=O)c1cc(NC(=O)Cn2ncc3c([nH]c4ccccc43)c2=O)cc(C(=O)OC)c1` . Reported survival: 66

Record `Cc1ccc(CNC(=O)c2nnn(Cc3ccc(F)cc3)c2N)cc1` . Reported survival: 91

Record `COc1ccc(Cl)cc1NC(=O)CSc1cc(C)[nH]c(=O)n1` . Reported survival: 80

Record `Cc1cc(C)c(Cn2c(=O)n(CCC(=O)NCc3ccc4c(c3)OCO4)c(=O)c3ccccc32)c(C)c1` . Reported survival: 108

Record `CCn1c(CNC(=O)c2ccccc2)n[nH]c1=S` . Reported survival: 86

----------
# System: DeltatarO mutant
# protocol description: S. aureus survival, RN4220 and DeltatarO strains – OD600, teichoic acid synthesis inhibitors, primary screen (AID 463173)
# run conditions: S. aureus RN4220 wild type/DeltatarO growth, OD600, 18 h, screened at 18.75 µg/mL (by protocol)
Out of some 52,000 compounds screened, about 4,300 (8.3%) were called active. Rule as the data show it: active = survival mostly below about 52% (no sharp cut-off); inactive = mostly above about 56%. The sample holds actives, similar compounds and a random draw of the others, so the mix is not that of the screen.
Form entry, call: pick from label 1 = active, label 0 = inactive

Outcome logged for O=C(NC1CCCC1)C(c1ccccc1)N(CC1CCCO1)C(=O)Cn1nnc2ccccc21 (stereo not given) in this assay:
label 0

Outcome logged for `CCC(=O)C1=C(c2ccc(F)cc2)N(C(=O)CC)n2c(nnc2-c2ccc(OC)cc2)S1` in this assay:
label 0

Outcome logged for `COC(=O)c1scc(-c2ccc(C)cc2)c1S(=O)(=O)N1CCN(c2ccc(F)cc2)CC1` in this assay:
label 1

Outcome logged for `CCOc1ccc2nc(NCCNC(=O)NCc3ccccc3)c(C#N)cc2c1` in this assay:
label 0

Outcome logged for `COC(=O)c1cc(S(=O)(=O)N2CCN(c3ccc(F)cc3)CC2)cn1C` in this assay:
label 1

Outcome logged for `CCOc1ccc(OC(=O)c2c(-c3ccccc3Cl)noc2C)cc1` in this assay:
label 0

Outcome logged for `COC(=O)c1scc(-c2ccc(C)cc2)c1S(=O)(=O)N1CCN(c2ccccc2)CC1` in this assay:
label 0

Outcome logged for `COCCNC(=O)c1ccc2nc(CCc3ccccc3)oc2c1` in this assay:
label 0

Outcome logged for `CCCOc1ccc(OC(=O)c2c(-c3ccccc3Cl)noc2C)cc1` in this assay:
label 0

Outcome logged for `CCOc1ccc(C2=C(C(=O)CC)Sc3nncn3N2C(=O)CC)cc1` in this assay:
label 1

----------
# Tested on: DeltatarO mutant
# protocol description: S. aureus survival, RN4220 and DeltatarO strains – OD600, teichoic acid synthesis inhibitors, primary screen (AID 463173)
# run conditions: S. aureus RN4220 wild type/DeltatarO growth, OD600, 18 h, screened at 18.75 µg/mL (by protocol)
About 4,300 (8.3%) of roughly 52,000 compounds were called active. Cut-off read from the data, not from the text of the source: active = survival mostly below about 52% (no sharp cut-off); inactive = mostly above about 56%. The sample holds actives, similar compounds and a random draw of the others, so the mix is not that of the screen.
Form entry, call: pick from True (active), False (inactive)

Outcome logged for `CC(C)CCNC(=O)C(=O)Nc1c2c(nn1-c1ccccc1)CS(=O)(=O)C2` in this assay:
False

Outcome logged for `CN(C(=O)c1cc2nc(-c3ccco3)cc(C(F)(F)F)n2n1)C12CC3CC(CC(C3)C1)C2` in this assay:
False

Outcome logged for Cc1ccc(C)c(CN2C(=O)c3ccccc3S(=O)c3ccc(C(=O)NCCC4=CCCCC4)cc32)c1 (stereo not given) in this assay:
False

Outcome logged for `CCN=C1Sc2nc3ccc(OCC)cc3cc2CN1CCOC` in this assay:
False

Outcome logged for CCC(NC(=O)Nc1ccc(OC)c(OC)c1)c1c(-n2cccc2)sc2c1CCN(C)C2 (stereo not given) in this assay:
False

Outcome logged for O=C(CC1SC(=NC2CCCCC2)NC1=O)Nc1ccccc1 (stereo not given) in this assay:
False

Outcome logged for CC(=O)c1ccc(NC(=O)C2CCCN(S(=O)(=O)c3ccc4c(c3)CCCN4C(C)=O)C2)cc1 (stereo not given) in this assay:
False

Outcome logged for Cn1c(=O)oc2cc(S(=O)(=O)NC(Cc3ccccc3)C(=O)NCc3ccccc3Cl)ccc21 (stereo not given) in this assay:
False

Outcome logged for `CCOc1ccc2nc3c(cc2c1)CN(CCO)C(=Nc1cccc(OC)c1)S3` in this assay:
True

Outcome logged for `COc1cc(OC)cc(-c2cc3nc(-c4ccccc4)cc(N4CCN(c5ccccc5)CC4)n3n2)c1` in this assay:
False
